# Tested target: Sodium-dependent serotonin transporter (Homo sapiens, UniProt P31645)
# Sequence (P31645 whole entry): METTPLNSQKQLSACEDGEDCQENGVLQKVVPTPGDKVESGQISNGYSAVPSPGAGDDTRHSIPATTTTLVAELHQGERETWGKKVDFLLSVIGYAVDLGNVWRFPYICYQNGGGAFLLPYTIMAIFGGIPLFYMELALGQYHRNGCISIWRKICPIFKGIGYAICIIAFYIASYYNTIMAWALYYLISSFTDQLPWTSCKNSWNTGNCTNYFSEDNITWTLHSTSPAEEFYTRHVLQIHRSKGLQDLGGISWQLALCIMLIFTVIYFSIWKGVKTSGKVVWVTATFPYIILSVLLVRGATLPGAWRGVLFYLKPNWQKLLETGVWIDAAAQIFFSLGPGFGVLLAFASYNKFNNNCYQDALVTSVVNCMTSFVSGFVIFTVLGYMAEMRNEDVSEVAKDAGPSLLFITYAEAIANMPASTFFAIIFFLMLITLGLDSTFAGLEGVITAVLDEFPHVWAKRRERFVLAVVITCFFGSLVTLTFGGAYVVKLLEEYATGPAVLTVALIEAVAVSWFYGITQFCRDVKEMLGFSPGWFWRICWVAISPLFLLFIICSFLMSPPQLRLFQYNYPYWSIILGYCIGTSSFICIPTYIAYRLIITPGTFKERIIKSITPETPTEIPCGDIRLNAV
# Run description: Displacement of [3H]citalopram from human SERT expressed in HEK293 cell membranes
pIC50: −log10 of the molar value.
Property: pIC50

[1] N#Cc1c[nH]c2ccc([C@@H]3CCC[C@H]3CN3CCCC3)cc12 (racemic)
[2] CN(C)C[C@H]1CCC[C@H]1c1ccc2[nH]cc(C#N)c2c1 (racemic)
[3] CN(C)C[C@H]1C[C@@H]1Cc1ccc2[nH]cc(C#N)c2c1 (racemic)
-- ask Hi! Can you put these in order of pIC50, lowest number first? # format: label list in the order the request specifies
-- reply 1, 3, 2
